# Organism: Danio rerio
# Protocol: Antiinflammatory activity in transgenic fluorescent zebrafish expressing EGFP assessed as reduction in CuSO4 induced number of macrophages surrounding the neuromast at 20 uM preincubated for 2 hrs followed by Cuso4 addition and measured after 1 hr by fluorescence microscopic analysis
# Type: functional, organism-based
# Experimental Conditions: time 3.0 hrs
Calls of active or inactive are those of the source. The calls are words filed in the database; no cut-off is given here.
Parameter: Activity

Answered cases to consult:
Chemical String: C=C1CC/C=C(\C)C[C@@H](O)[C@@H]2C(C(C)(C)O)=CC[C@@]2(C)CC1
Activity: Active
//
Chemical String: CC1=C2CC[C@@]3(C)CC/C(C)=C/C(=O)C[C@@H](C)C[C@@H](OC1=O)[C@H]23
Activity: Active
//
Chemical String: C=C[C@@]1(C)C[C@H]2NC(=O)C(C)=C2C[C@@H]1C(=C)C(=O)OC
Activity: Active
//
Chemical String: C=C1CC/C=C(\C)C[C@H]2OC(=O)C(C)=C3CC[C@@](C)(CC1)[C@@H]32
Activity: Active
//
Chemical String: CC1=C2CC[C@@]3(C)/C=C/[C@]4(C)C[C@](O)(C[C@@H](C)C[C@@H](OC1=O)[C@H]23)OO4
Activity: Active
//
Chemical String: COc1ccc2c(c1)c(CC(=O)O)c(C)n2C(=O)c1ccc(Cl)cc1
Activity: Active
//
Chemical String: C=C[C@]1(C)C[C@@H]2NC(=O)C(C)=C2C[C@H]1C(=C)C(=O)OC
Activity: Active
//
Chemical String: CC1=C2C(=O)C[C@@]3(C)CC/C(C)=C\C(=O)C[C@@H](C)C[C@@H](OC1=O)[C@H]23
Activity: Active

We now examine a further compound.
Inquiry: Given the entry CC1=C2CC[C@@]3(C)CC/C(C)=C\C(=O)C[C@@H](C)C[C@@H](OC1=O)[C@]23OO , report its measured Activity.
Reply text: Active
